Every entry's value here was drawn from ChEMBL document CHEMBL4020785.

Molecular target: Peroxisome proliferator-activated receptor alpha (Homo sapiens)
Sequence (whole entry): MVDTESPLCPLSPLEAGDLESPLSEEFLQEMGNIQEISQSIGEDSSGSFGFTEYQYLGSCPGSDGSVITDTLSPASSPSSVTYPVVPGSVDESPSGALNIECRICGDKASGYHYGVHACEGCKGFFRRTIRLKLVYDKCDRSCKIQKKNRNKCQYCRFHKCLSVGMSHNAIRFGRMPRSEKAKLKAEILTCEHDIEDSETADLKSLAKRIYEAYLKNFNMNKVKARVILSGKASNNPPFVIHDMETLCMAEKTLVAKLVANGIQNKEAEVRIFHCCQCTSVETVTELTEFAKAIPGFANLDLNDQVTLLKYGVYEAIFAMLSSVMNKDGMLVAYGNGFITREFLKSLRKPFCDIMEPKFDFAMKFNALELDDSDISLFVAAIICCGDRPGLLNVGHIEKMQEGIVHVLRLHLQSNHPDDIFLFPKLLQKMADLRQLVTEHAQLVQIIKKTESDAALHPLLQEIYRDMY
Assay: Agonist activity at GAL4N fused human PPARalpha LBD expressed in HEK293 cells co-expressing TK-MH100x4-Luc after 24 hrs by luciferase reporter gene assay relative to GW7647
Type: cell-based

- molecule: "CC(=O)NC(C)c1nc(-c2ccc(OCCN3c4ccccc4Oc4ccccc43)cc2)no1 (centres undefined)"
  Efficacy: "7 to 17%"
- molecule: "CCO[C@@H](Cc1ccc(OCCc2ccc(OS(C)(=O)=O)cc2)cc1)C(=O)O"
  Efficacy: "122 to 186%"
- molecule: "CC(=O)N[C@@H](C)c1nc(-c2ccc(OCCc3ccc(OS(C)(=O)=O)cc3)cc2)no1"
  Efficacy: "13 to 33%"
- molecule: "CCOC(Cc1ccc(Oc2ccc(OCc3ccccc3)cc2)cc1)C(=O)O (centres undefined)"
  Efficacy: "87 to 129%"
